Values compiled from PubChem BioAssay.

Test: viability profiling in RPMI8226 myeloma cells – cell-based, resazurin fluorescence, basal, 24 h, PK04 Diversity Set, profiling panel (AID 1180);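 note: RPMI8826 multiple myeloma cell line at 5000 cells per well; test concentration not given here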
Conditions: higher = more signal
property: z-score
// response body must contain only the number

Per the record, COC(=O)[C@@]1(Cc2ccc(OC)cc2)[C@H]2c3cc(C(=O)N4CCCC4)n(CCO)c3C[C@H]2CN1C(=O)c1ccccc1 has z-score of -0.861

What the record says about COc1cccc(C)c1NC(=O)O[C@H]1[C@H](OC(=O)Nc2ccccc2-c2ccccc2)[C@H](OC(=O)Nc2ccccc2-c2ccccc2)[C@@H](OC)O[C@@H]1CO : z-score is -0.575

Summary for this compound, CCCNC(=O)[C@@]1(C)c2ccccc2C(=O)N(c2ccc(C)cn2)[C@H]1c1ccc(CO)cc1 : z-score is -0.388
